# target or system: T1, PUF4 RNA-binding domain (Saccharomyces cerevisiae, UniProt P25339 537-888)
# T1 sequence: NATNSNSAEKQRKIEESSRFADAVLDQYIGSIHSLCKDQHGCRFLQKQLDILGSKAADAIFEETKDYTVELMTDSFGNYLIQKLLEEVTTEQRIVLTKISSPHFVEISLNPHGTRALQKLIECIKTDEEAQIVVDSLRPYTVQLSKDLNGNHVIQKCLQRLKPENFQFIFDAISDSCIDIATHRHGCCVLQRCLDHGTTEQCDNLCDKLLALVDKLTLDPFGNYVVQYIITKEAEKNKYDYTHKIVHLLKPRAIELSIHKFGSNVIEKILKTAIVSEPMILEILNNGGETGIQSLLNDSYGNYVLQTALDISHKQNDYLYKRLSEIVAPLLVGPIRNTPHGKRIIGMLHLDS
# test details: Mg; RNA-MaP; 20 mM Na-HEPES pH 7.4, 30 mM KOAc, 0.75 mM MgCl2, 0.1% Tween-20, 5% glycerol, 0.1 mg/mL BSA, 2 mM DTT; 25 C; 0.0125-409.6 nM protein
# conditions used: tags: N-His6-TEV cleaved; C-SNAP kept, Cy3B-labelled; label: tethered on chip by stalled RNA polymerase
outcome measure: pKd
Scale: pKd equals -log10([C]), with [C] in mol/L.

Example binders with recorded pKd:
- binder: "Ie_S4_P5E.1_K5.1_C5.1_H5.1_A5.1_[+5CCCTT]_F5.1_T5.1 (ssRNA) RNA: UUUGACAACUGAUCGUUCUUUCUUGUAUCCCUUUAUUAUUCUUUCUCGAUCAGUUGUCUUU"
  outcome measure: "pKd"
  reported: 7.68
- binder: "Ic_S4_P4E.1_K4.1_C4.1_H4.1_A4.1_[A6T]_[T7C]_F4.1_[T8C]_[A9G]_T4.1 (ssRNA) RNA: UUUGACAACUGAUCGUUCUUUCUUGUAUUCCGUUCUUUCUCGAUCAGUUGUCUUU"
  outcome measure: "pKd"
  reported: 6.80
- binder: "Ie_S2_P3E.2_K3.1_C3.2_H3.1_[+3CCTC]_A3.1_F3.1_T3.2 (ssRNA) RNA: UUUGAUUAAUAUGAUAUCGUUCUUUCUCUUGUCCUCAUAUAUAUUCUUUCUCGAUAUCAUAUUAAUCUUU"
  outcome measure: "pKd"
  reported: 7.20
- binder: "UCUCUUUGUAUCAUUAUCUCUU (ssRNA) [Ia_S1_P5E.1_K5.1_C5.1_H5.1_A5.1_[T6C]_F5.1_T5.1]"
  outcome measure: "pKd"
  reported: 8.18
- binder: "Ic_S4_P5E.1_K5.1_C5.1_H5.1_A5.1_[T5C]_[T6A]_[A7C]_F5.1_[T9C]_[A10C]_T5.1 (ssRNA) RNA: UUUGACAACUGAUCGUUCUUUCUUGUACACUCCUUCUUUCUCGAUCAGUUGUCUUU"
  outcome measure: "pKd"
  reported: 8.18

// field: pKd; key: Ic_S2_P5E.1_K5.1_C5.1_H5.1_A5.1_[T5A]_F5.1_[T9A]_[A10T]_T5.1 (ssRNA) RNA: UUUGAUUAAUAUGAUAUCGUUCUUUCUUGUAAUAUAUUUCUUUCUCGAUAUCAUAUUAAUCUUU ; value = 8.88

// field: pKd; key: UCUCUUUAUAUAUUCUCUCUU (ssRNA) [Ib_S1_P4E.1_K4.1_C4.1_H4.1_[G2A]_A4.1_F4.1_[A9C]_T4.1] ; value = 6.07

// field: pKd; key: ACAAACUCUAUAUAUUAUGACAAAC (ssRNA) [Id_ii_S3_P4E.3_K4.2_C4.2_[C-2T]_[T-1C]_H4.2_A4.1_F4.1_T4.2_[G10T]_[T11G]] ; value = 7.84

// field: pKd; key: UCUCUUUGUACAAAUUCUCUU (ssRNA) [Ic_S1_P4E.1_K4.1_C4.1_H4.1_A4.1_[T5C]_[T7A]_F4.1_[T8A]_[A9T]_T4.1] ; value = 6.90

// field: pKd; key: Id_iii_S2_P3E.6_K3.2_C3.3_[C-2T]_H3.2_A3.1_F3.1_T3.2 (ssRNA) RNA: UUUGAUUAAUAUGAUAUCGUUCUUUCUUUUUAUAUAUAUAUUCUUUCUCGAUAUCAUAUUAAUCUUU ; value = 6.96

// field: pKd; key: UCUCUUUGUAUGACCCUCUCUU (ssRNA) [Ic_S1_P5E.1_K5.1_C5.1_H5.1_A5.1_[T6G]_F5.1_[T8C]_[T9C]_[A10C]_T5.1] ; value = 5.66
